- test: qHTS Assay for Identifying Gametocytocidal Compounds (AID 743244);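 further: on the % scale 0 is the no-effect control and ±100 the full control effect; actives lower the fluorescent signal which means gametocytes are killed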
- experimental.conditions: P. falciparum 3D7 stage III-V gametocytes, alamarBlue, 72 h; stronger effect = lower value
Results filed as inconclusive are left out.
Reported max response values are given for each entry in this list.
Give just the number in %; leave the unit off.

Would you please look over these solved cases?
molecule	max response, %
CCN1CCN(C(=O)N[C@@H](C(=O)N[C@@H]2C(=O)N3[C@@H]2SC(C)(C)[C@H]3C(=O)O)c2ccccc2)C(=O)C1=O	-7.03
CN1C(=O)CC(C)(c2ccccc2)C1=O (centres undefined)	-8.12

Reported max response for CC1(C)S[C@@H]2[C@H](NC(=O)C(c3ccccc3)S(=O)(=O)O)C(=O)N2[C@H]1C(=O)O (some centres undefined) : what is it?
-17.7

Reported max response for O=C(O)CCC(=O)OC[C@@H](NC(=O)C(Cl)Cl)[C@H](O)c1ccc([N+](=O)[O-])cc1 : what is it?
-4.91

Reported max response for Nc1c(NC/C=C\COc2cc(CN3CCCCC3)ccn2)c(=O)c1=O : what is it?
-0.695

Reported max response for Brc1ccccc1-c1ccccc1 : what is it?
-19.3

Reported max response for O=C(c1ccccc1)c1ccccc1 : what is it?
-8.14

Reported max response for CC(C)(C)c1nnc(NS(=O)(=O)c2ccccc2)s1 : what is it?
0.521

Reported max response for CC(=O)OCC(=O)[C@@]1(O)[C@H](OC(C)=O)C[C@H]2[C@@H]3CCC4=CC(=O)C=C[C@]4(C)[C@@]3(F)[C@@H](O)C[C@@]21C : what is it?
-5.18

Reported max response for CN(CC1(C)CCCO1)S(=O)(=O)c1ccc(Cl)c(S(N)(=O)=O)c1 (centres undefined) : what is it?
-10.7

Reported max response for CSc1ccc(/C=C2/C(C)=C(CC(=O)O)c3cc(F)ccc32)cc1 : what is it?
-4.94

Reported max response for CCCC(=O)c1cc(O)c(O)cc1O : what is it?
30.2

Reported max response for CCOC(=O)O[C@]1(C(=O)OCCl)CC[C@H]2[C@@H]3CCC4=CC(=O)C=C[C@]4(C)[C@H]3[C@@H](O)C[C@@]21C : what is it?
-2.36

Reported max response for CC(=O)Nc1ccn(C2COC(COC(=O)c3ccccc3)O2)c(=O)n1 (centres undefined) : what is it?
-5.34

Reported max response for CNC[C@H](O)[C@@H](O)[C@H](O)[C@H](O)CO : what is it?
10.7

Reported max response for C[C@H]1C[C@H]2[C@@H]3CCC4=CC(=O)C=C[C@]4(C)[C@H]3C(=O)C[C@]2(C)[C@@]1(O)C(=O)CO : what is it?
-0.729

Reported max response for Cc1ccc(/C=N/n2c(-c3ccccc3)csc2=S)cc1 : what is it?
-23

Reported max response for Cc1ccccc1C(=O)N1CC/C(=N\OS(=O)(=O)O)c2ccc(Cl)cc21 : what is it?
0.506

Reported max response for Nc1ncnc2n[nH]c(Nc3ccc(F)cc3)c12 : what is it?
6.51

Reported max response for CC(C)(C)C(O)/C=C/c1ccc2c(c1)OCO2 (centres undefined) : what is it?
-15.2

====

- test: P-glycoprotein substrates identified in KB-8-5-11 adenocarcinoma cell line, qHTS therapeutic library screen (AID 1346987); further: nearly all actives have a fitted effect of over 65% in size
- experimental.conditions: KB-8-5-11 (P-gp overexpressing) viability, CellTiter-Glo, 72 h; series mostly up to 44.5 µM
- Procedure: The ATP-binding cassette transporters P-glycoprotein (P-gp) is known to limit brain penetration of many chemotherapy drugs. […] All cell lines were plated into 1536-well plates at 500 cells/well in 5 uL media. […] CellTiter-Glo reagent (Promega) was dispensed into the wells, incubated for 5 min and luminescence was read on a ViewLux instrument (Perkin-Elmer). […]
Inconclusive results are not listed. Active and inactive are the calls of the source. Calls come from the whole dose curve; as a rule, active = well fitted inhibition curve with a large enough effect; inconclusive = small, poorly fitted or top-dose-only effect; inactive = flat fitted curve, though single readings scatter.
// classify into active, inactive

See these solved cases before continuing.
compound	class.label
CCC(C(=O)NC(=O)NC(C)=O)c1ccccc1 (stereo not given)	inactive
CN1[C@@H]2CC[C@H]1CC(NC(=O)n1c(=O)[nH]c3ccccc31)C2 (stereo not given in full)	inactive
CC(CCc1ccc2c(c1)OCO2)NN (stereo not given)	inactive
CCCCC(O)/C=C(C)/C=C/C=C/C(=O)N1CCCC1=O (stereo not given)	inactive
C[C@H](CN1CCCC1)C(=O)c1ccc(C(F)(F)F)cc1	inactive
O=C(CO)[C@@H](O)[C@H](O)[C@@H](O)CO	inactive
Cc1ccccc1N1CCN(CCc2nnc3n2CCCC3)CC1	inactive
COC(=O)C1=CO[C@@H](O)[C@@H]2C(CO)=CC[C@H]12	inactive

// return assay outcome for CCCCC/C=C\C/C=C\CCCCCCCC(=O)NC(C)c1ccccc1 (stereo not given)
inactive

// return assay outcome for N#C/C(=C1/SC[C@@H](c2ccc(Cl)cc2Cl)S1)n1ccnc1
inactive

// return assay outcome for CC(=O)Nc1c(I)c(NC(C)=O)c(I)c(C(=O)O)c1I
inactive

// return assay outcome for O=C(O)[C@@H](O)[C@H](O)[C@H](O)[C@@H](O)C(=O)O
inactive

// return assay outcome for CC(C)=CCNc1ncnc2c1ncn2[C@@H]1O[C@H](CO)[C@@H](O)[C@H]1O
active

// return assay outcome for CC(=O)Nc1ccc(S(=O)(=O)Nc2cc(C)on2)cc1
inactive
